Test protocol: Cytotoxicity against human ovarian cancer cells after 48 hrs
Format: functional
Condition parameters: Cancer cell lines
Use 30 µM as the dividing line for TGI, with the line itself on the Condition met side and lower values as Condition not met.

{"columns": ["Compound", "Assigned label"],
 "data": [
  ["O=C1Nc2cc(Cl)ccc2C1=Cc1c(-c2ccccn2)nc2sccn12 (mixture of isomers)", "Condition not met"]
]}

Tell me whether TGI is at least 30 µM here: COc1nc2sccn2c1/C=C1/C(=O)Nc2ccccc21
Condition not met

Note, next up: COc1ccc2c(c1)C(=Cc1c(OC)nc3sccn13)C(=O)N2C (mixture of isomers)
Condition met

Note, next up: COc1nc2sccn2c1C=C1C(=O)Nc2ccc(F)cc21 (mixture of isomers)
Condition met

Note, next up: COc1nc2sccn2c1/C=C1/C(=O)Nc2cccc(Cl)c21
Condition met

Note, next up: O=C1Nc2ccc(Cl)cc2C1=Cc1c(-c2ccccn2)nc2sccn12 (mixture of isomers)
Condition not met

Note, next up: COc1ccc2c(c1)/C(=C\c1c(-c3ccccn3)nc3sccn13)C(=O)N2
Condition not met

Note, next up: Cc1ccc(-c2nc3sc(C)cn3c2/C=C2/C(=O)Nc3cc(C)c(O)cc32)cc1
Condition met

Note, next up: Cc1cn2c(/C=C3/C(=O)Nc4c3ccc3ccccc43)c(C)nc2s1
Condition not met

Note, next up: COc1nc2sccn2c1/C=C1/C(=O)Nc2ccc(Cl)cc21
Condition met
